# ASSAY SUMMARY: Maximum Tolerated Dose / toxicity in healthy mice
# Assay type: in vivo
# EXPERIMENTAL SETUP: mouse, in vivo, iv, owing to the toxicity of Diluent 12; read-out: dose of free taxol that could be given as a single injection
TEST READOUT: MTD

1) CC(=O)O[C@H]1C(=O)[C@@]2(C)[C@H]([C@H](OC(=O)c3ccccc3)[C@]3(O)C[C@H](OC(=O)[C@H](O)[C@@H](NC(=O)c4ccccc4)c4ccccc4)C(C)=C1C3(C)C)[C@]1(OC(C)=O)CO[C@@H]1C[C@@H]2O    < 35 mg/kg

* * *

# ASSAY SUMMARY: Maximum Tolerated Dose / toxicity in healthy mice
# Format: in vivo
# EXPERIMENTAL SETUP: mouse, in vivo, iv, single dose; read-out: MTD, single dose
# Description: The Maximum Tolerated Dose ("MTD") for taxol-liposome formulations administered via the intravenous route was determined in healthy BALB/c female mice. Survey experiments to define the MTD were performed with two animals per group. Doses were escalated in 2-fold increments, starting at 5 mg/kg. Drug effects were determined by close observation of weight changes and survival. The highest non-lethal dose of taxol causing >10% weight loss within one week of cessation of dosing was defined as the MTD. […]
TEST READOUT: MTD

1) CC(=O)O[C@H]1C(=O)[C@@]2(C)[C@H]([C@H](OC(=O)c3ccccc3)[C@]3(O)C[C@H](OC(=O)[C@H](O)[C@@H](NC(=O)c4ccccc4)c4ccccc4)C(C)=C1C3(C)C)[C@]1(OC(C)=O)CO[C@@H]1C[C@@H]2O    ~30 mg/kg
